Cathepsin K (Homo sapiens, UniProt P43235): recorded Ki for assorted molecules
outcome_measure: Ki (nM)

CC(C)C[C@@H](C(=O)NCC#N)c1cccc(-c2cccc(-c3csc(N4CCN(C(C)(C)C)CC4)n3)c2)c1    1.3
CC(C)C[C@@H](C(=O)NCC#N)c1cccc(-c2cccc(-c3csc(N4CCC(N(C)C)C4)n3)c2)c1 (stereo partly specified)    3

I = CC(C)C[C@@H](C(=O)NCC#N)c1cccc(-c2ccc(N3CCNCC3)cc2)c1
II = CC(C)CC(C(=O)NCC#N)c1cccc(-c2ccc(-c3csc(N4CCNCC4)n3)cc2)c1 (racemic)
Between these two entries, I and II , state which has the higher Ki. Identify your selection by its label. I

A = CC(C)CC(C(=O)NCC#N)c1cccc(-c2cccc(-c3csc(N4CCNCC4)n3)c2)c1 (racemic)
B = CC(C)CC(C(=O)NCC#N)c1cccc(-c2cccc(-c3csc(N4CCN(C)CC4)n3)c2)c1 (racemic)
Between these two entries, A and B , state which has the higher Ki. Identify your selection by its label. B
(B: 1.3 nM, A: 0.8 nM)

* * *

tested_on: Cathepsin (B and K) (Homo sapiens) (UniProt P43235+P07858)
Sequence (P43235 whole entry, looked up, other chains not shown): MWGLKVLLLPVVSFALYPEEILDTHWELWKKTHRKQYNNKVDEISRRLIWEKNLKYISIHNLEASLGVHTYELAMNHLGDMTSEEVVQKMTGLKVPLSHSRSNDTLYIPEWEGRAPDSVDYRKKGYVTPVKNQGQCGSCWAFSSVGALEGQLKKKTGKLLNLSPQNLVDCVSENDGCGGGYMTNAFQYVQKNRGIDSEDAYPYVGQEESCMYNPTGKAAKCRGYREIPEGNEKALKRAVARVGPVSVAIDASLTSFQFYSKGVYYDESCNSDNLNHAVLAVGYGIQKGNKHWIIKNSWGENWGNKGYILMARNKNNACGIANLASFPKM
procedure_details: Selectivity for cathepsin B over cathepsin K
Format: protein assay
outcome_measure: Selectivity ratio

CC(C)C[C@@H](C(=O)NCC#N)c1cccc(-c2cccc(-c3csc(CN4CCNCC4)n3)c2)c1    10600
CC(C)C[C@@H](C(=O)NCC#N)c1cccc(-c2ccc(N3CCNCC3)cc2)c1    481
CC(C)C[C@@H](C(=O)NCC#N)c1cccc(-c2cccc(-c3csc(N4CCN(C(C)(C)C)CC4)n3)c2)c1    28500
CC(C)CC(C(=O)NCC#N)c1cccc(-c2cccc(-c3csc(N4CCN(C)CC4)n3)c2)c1 (racemic)    16900
CC(C)C[C@@H](C(=O)NCC#N)c1cccc(-c2cccc(-c3csc(N4CCC(N(C)C)C4)n3)c2)c1 (some centres not stated)    17000

a = CC(C)CC(C(=O)NCC#N)c1cccc(-c2cccc(-c3csc(N4CCNCC4)n3)c2)c1 (racemic)
b = CC(C)CC(C(=O)NCC#N)c1cccc(-c2ccc(-c3csc(N4CCNCC4)n3)cc2)c1 (racemic)
Pick one, a or b : lowest reported Selectivity ratio. Identify your selection by its label. b

* * *

tested_on: Cathepsin B (Homo sapiens)
outcome_measure: Ki (µM)

CC(C)CC(C(=O)NCC#N)c1cccc(-c2cccc(-c3csc(N4CCN(C)CC4)n3)c2)c1 (racemic)    22
CC(C)C[C@@H](C(=O)NCC#N)c1cccc(-c2cccc(-c3csc(N4CCC(N(C)C)C4)n3)c2)c1 (stereo partly specified)    51
CC(C)CC(C(=O)NCC#N)c1cccc(-c2ccc(-c3csc(N4CCNCC4)n3)cc2)c1 (racemic)    12
CC(C)C[C@@H](C(=O)NCC#N)c1cccc(-c2cccc(-c3csc(N4CCN(C(C)(C)C)CC4)n3)c2)c1    37

A = CC(C)C[C@@H](C(=O)NCC#N)c1cccc(-c2ccc(N3CCNCC3)cc2)c1
B = CC(C)CC(C(=O)NCC#N)c1cccc(-c2cccc(-c3csc(N4CCNCC4)n3)c2)c1 (racemic)
Pick one, A or B : lowest reported Ki. Identify your selection by its label. A
(A: 3.84 µM, B: 18 µM)
